target: HIV-1 Tat (Human immunodeficiency virus 1, UniProt P04608 P04608:1-86); assay: filter; D1/2 76 nM; compensatory mutation restores binding; conditions: stem-loop with bulge
pKd: −log10 of the molar value.

| binder | pKd |
| --- | --- |
| TAR G28 to C28; C37 to G37 (ssRNA) RNA: GGGUCUCUCUGGUUAGACCAGAUUUGACCCUGGGAGGUCUCUGGCUAACUAGGGAACCC | 7.62 |
